What EC50 was measured for each of the following?
Biological target: Glucocorticoid receptor (Homo sapiens)
Sequence (P04150 whole entry): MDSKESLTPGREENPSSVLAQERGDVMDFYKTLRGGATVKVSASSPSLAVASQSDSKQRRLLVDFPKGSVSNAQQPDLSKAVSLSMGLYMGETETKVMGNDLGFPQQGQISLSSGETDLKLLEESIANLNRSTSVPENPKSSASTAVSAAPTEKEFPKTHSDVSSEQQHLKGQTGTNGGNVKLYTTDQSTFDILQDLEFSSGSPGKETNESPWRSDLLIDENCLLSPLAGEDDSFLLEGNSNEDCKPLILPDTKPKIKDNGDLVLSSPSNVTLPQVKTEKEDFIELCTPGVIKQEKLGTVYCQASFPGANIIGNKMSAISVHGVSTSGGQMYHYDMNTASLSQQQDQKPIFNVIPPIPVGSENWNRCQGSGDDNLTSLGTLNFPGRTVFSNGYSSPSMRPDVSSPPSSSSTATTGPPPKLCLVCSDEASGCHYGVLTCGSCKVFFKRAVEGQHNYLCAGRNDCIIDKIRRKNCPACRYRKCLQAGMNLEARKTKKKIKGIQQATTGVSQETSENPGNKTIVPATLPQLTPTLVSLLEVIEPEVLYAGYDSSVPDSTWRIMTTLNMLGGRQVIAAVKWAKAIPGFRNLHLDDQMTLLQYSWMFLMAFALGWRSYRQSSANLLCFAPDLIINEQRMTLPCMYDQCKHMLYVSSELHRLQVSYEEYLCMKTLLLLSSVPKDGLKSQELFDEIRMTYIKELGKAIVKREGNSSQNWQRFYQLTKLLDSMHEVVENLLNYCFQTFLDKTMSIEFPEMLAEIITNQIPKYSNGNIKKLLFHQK
Assay: Activity at glucocorticoid receptor in human A549 cells assessed as effect on GRE promoter response by luciferase reporter assay
Give bare numbers, in µM.

compound	unit_tag	EC50
CCCC(CC(=O)O)C1=C2O[C@H](C(C)(C)O)C[C@@]23C[C@H](CC=C(C)C)C(C)(C)[C@@](C(=O)C(C)CC)(C1=O)C3=O (some centres not stated) [SUNDAICUMONE B]	µM	75

Consider the additional compound presented here.
Please report the recorded EC50 for CCCC(CC(=O)O)C1=C2O[C@H](C(C)(C)O)C[C@@]23C[C@H](CC(O)C(C)(C)O)C(C)(C)[C@@](C(=O)C(C)CC)(C1=O)C3=O (some centres not stated) [SUNDAICUMONE A] .
173
